A collection of compounds and their measured %Inh
System: JNK3
Construct: gene MAPK10
Conditions: concentration: 1 μM,replicates: in singlicate; n = 1;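 further: KINOMEscan kinase panel screen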

| compound | reading.unit | %Inh |
| --- | --- | --- |
| CCNCC(Cc1ccccc1)NC(=O)c1cc(Br)c(-c2ccnc3[nH]ccc23)s1.Cl.Cl (stereo not drawn) | % | 1 |
| C[C@@H](Oc1cc(-n2cnc3cc(-c4cnn(C)c4)ccc32)sc1C(N)=O)c1ccccc1Cl | % | 16 |
| CC(=O)Nc1ccc(-c2cc3ncnc(SCC(=O)O)c3s2)cc1 | % | 0 |

###

A collection of compounds and their measured %Inh
Tested on: CDKL1
Conditions: concentration: 1 μM,replicates: in singlicate; n = 1

| compound | target.under.test | %Inh, % |
| --- | --- | --- |
| Cc1ccc(Nc2ccnc(Nc3ccc4c(c3)CS(=O)(=O)C4)n2)cc1O.Cl [GW579362] | CDKL1 | 36 |
| O=c1[nH]cc(-c2ccc(O)cc2)c2sc(-c3ccncc3)cc12 [GSK1033723] | CDKL1 | 7 |
| COc1cc(Nc2nccc(N3CCC(NC(=O)c4cccc(C#N)c4)C3)n2)cc(OC)c1OC (stereo not drawn) [GSK1379751] | CDKL1 | 0 |
| Cn1ccc2ncnc(Oc3ccc(NC(=O)Nc4cccc(C(F)(F)F)c4)c(F)c3)c21 | CDKL1 | 62 |
| CCNCC(Cc1ccccc1)NC(=O)c1cc(Br)c(-c2ccnc3[nH]ccc23)s1.Cl.Cl (stereo not drawn) [GSK1383280] | CDKL1 | 17 |
| COC(=O)c1cccc(NC(=O)NC2CCN(c3ccnc(NCc4ccc(F)cc4)n3)CC2)c1 [GSK1379860] | CDKL1 | 0 |
| Nc1nccc(-c2ccc3c(N)n[nH]c3c2)n1 [GSK1034945] | CDKL1 | 10 |
| C[C@@H](Oc1cc(-n2cnc3ccc(-c4ccncc4)cc32)sc1C(N)=O)c1ccccc1Cl [GSK483724] | CDKL1 | 16 |
| CCn1c(-c2nonc2N)nc2cncc(Br)c21 [SB-738004] | CDKL1 | 2 |

Reference source: paper PMC5540273
